# MEASUREMENT_PROTOCOL: gradient 5% acetonitrile 3 min, to 50% in 2 min, to 85% in 15 min, held 3 min, 100 µL/min
# TEST_PARAMETERS: column: Zorbax Extend-C18 2.1 x 50 mm; eluents: water / acetonitrile, 0.1% formic acid
Rule: RP-LC retention time below 700 s gives true, anything at or above gives false.

Exercise: Item "CCOc1ccc2nc(NC(=O)C3CCN(C(=O)c4ccc(-c5noc(C)n5)cc4)CC3)sc2c1" : RP-LC retention time beneath 700 s, strictly?
Solution: false

Exercise: And "Cc1ccnc(Nc2nc(CC(=O)N3CCN(S(C)(=O)=O)CC3)cs2)c1" ?
Solution: true

Exercise: What would you report for CC(C)n1nnc2cc(S(=O)(=O)N3CCCC(C(=O)N4CCC(C(N)=O)CC4)C3)ccc21 (stereo unspecified) ?
Solution: true

Exercise: Same question for CCS(=O)(=O)N1CC(=O)N(c2cccc(Cl)c2)C(C)(C(=O)NC2CCCCCC2)C1 (stereo unspecified) please.
Solution: false

Exercise: Same again, this time with "COc1ccc(-c2nnc(-c3cc(S(=O)(=O)N4CCCCCC4)ccc3Cl)o2)cc1"
Solution: false

Exercise: Same for "O=C(Cn1cc(-c2ccccc2)c2ncnc(N3CCOCC3)c21)N1CCCC1"
Solution: true

Exercise: Query CCOc1ccc(-c2nc(C3CC(=O)N(c4ccc(Cl)cc4)C3)no2)cc1OCC (stereo unspecified) next
Solution: false

Exercise: # repeat for "CCNS(=O)(=O)c1cccnc1Nc1ccccc1"
Solution: false

Exercise: "Cc1ccc(C)c(NC(=O)c2cc(C)n3nccc3n2)c1" , same question.
Solution: false

Exercise: Entry to check: "O=C(CCc1nnn2c1CN(C(=O)c1nccc3ccccc13)CC2)N1CCCC1"
Solution: true

---

Kindly state RP-LC retention time for each of the entries shown.
# MEASUREMENT_PROTOCOL: gradient 5% acetonitrile 3 min, to 50% in 2 min, to 85% in 15 min, held 3 min, 100 µL/min
# TEST_PARAMETERS: column: Zorbax Extend-C18 2.1 x 50 mm; eluents: water / acetonitrile, 0.1% formic acid
Answer shape: numeric part, then the unit.

Exercise: What value of RP-LC retention time has been recorded for this entry: "O=S(=O)(NCC1CCN(Cc2cccs2)CC1)c1cc(F)ccc1F"
Solution: 562 s

Exercise: Moving on to "O=C(NCc1nc2ccccc2n1CC(=O)N1CCCC1)c1ccco1"
Solution: 587 s

Exercise: How about "O=C(NCc1ccc2c(c1)CCCN2C(=O)C1CCC1)c1cc(F)cc(F)c1" ?
Solution: 934 s

Exercise: Param item: "Cc1ccc(NC(=O)C2CCN(S(=O)(=O)c3cc(C(=O)N4CCCCCC4)cs3)CC2)nc1"
Solution: 754 s

Exercise: Follow-up entry: "CCn1nnc2cc(-c3noc(CNC(=O)c4ccccc4)n3)ccc21"
Solution: 772 s

Exercise: Check "CCNS(=O)(=O)c1c(C)[nH]c(=O)[nH]c1=O" too.
Solution: 550 s

---

Answer each item with its documented RP-LC retention time.
# MEASUREMENT_PROTOCOL: gradient 5% acetonitrile 3 min, to 50% in 2 min, to 85% in 15 min, held 3 min, 100 µL/min
# TEST_PARAMETERS: column: Zorbax Extend-C18 2.1 x 50 mm; eluents: water / acetonitrile, 0.1% formic acid
Give your result in s as a bare value.

Exercise: # get_value(readout='RP-LC retention time', item= "Cc1ccc(-c2nc3nc4c(c(N5CCN(c6ccccn6)CC5)n3n2)CCC4)cc1" )
Solution: 684

Exercise: Repeat with "CCOC(=O)c1c(C)c(CCC(=O)NCc2cn[nH]c2C)n(C)c1C"
Solution: 663

Exercise: Repeat with "CCOc1ccccc1-c1csc(NC(=O)c2sc(C)nc2C)n1"
Solution: 981

Exercise: Same thing, different molecule: "Cc1ccc(F)c2c(=O)c3c([nH]c12)CCN(CC(=O)Nc1ccc(F)c(F)c1)C3"
Solution: 635

Exercise: Cool, now "O=C(NCc1ccco1)C1(c2ccc(F)cc2)CC1"
Solution: 788

Exercise: Same thing, different molecule: COCCCN1C(=O)CC(N2CCN(c3ccc(F)cc3)CC2)C1=O (stereo unspecified)
Solution: 666

Exercise: "COc1ccc(C)cc1NS(=O)(=O)c1ccccc1-c1nc(-c2ccc(F)cc2)no1" ?
Solution: 1280

Exercise: Note, next up: "O=C(C1=CN(c2ccc3c(c2)OCCO3)c2ccccc2S1(=O)=O)N1CCOCC1"
Solution: 730

Exercise: Now the molecule Cc1cc(Nc2cccc(C(C)O)c2)nc(-n2cc([N+](=O)[O-])cn2)n1 (stereo unspecified)
Solution: 690

Exercise: Same read-out for "O=C(NCCn1nc(-n2cccn2)ccc1=O)C1(c2ccccc2)CCOCC1" ?
Solution: 635

Exercise: Now the same for "Cc1noc(C)c1-c1ccc(S(=O)(=O)NCc2ccc3c(c2)OCO3)cc1"
Solution: 894

Exercise: Now this one: "CNC(=O)c1cc(NC)nc2c(Cl)cccc12"
Solution: 568

Exercise: # repeat for "COc1cccc(S(=O)(=O)N2CCc3c(c(-c4nnc(-c5ccccc5F)o4)nn3C)C2)c1"
Solution: 916

Exercise: Field entry: "CN(Cc1ccoc1)C(=O)NC1CCCC1"
Solution: 763

Exercise: Same for COc1ccc(NC(=O)C(C)C2CCN(C(=O)Nc3ccc(C)cc3)CC2)c(OC)c1 (stereo unspecified)
Solution: 848

Exercise: Also "CCN1CCCn2cc(S(=O)(=O)Nc3ccc(OC)c(Cl)c3)cc2C1=O" , if possible.
Solution: 740

Exercise: Would you kindly repeat that for "COc1ccc(-c2nc(-c3ccc4ncn(C(C)C)c4c3)no2)c(OC)c1" ?
Solution: 729

Exercise: Field entry: "CCN1c2ccccc2C(=O)NC12CCN(C(=O)NCc1ccccc1)CC2"
Solution: 881

Exercise: And what about the molecule "CC(C)(C)c1csc(-c2csc(S(=O)(=O)Nc3ccc(F)c(F)c3)c2)n1" ?
Solution: 1260

Exercise: Entry CC(C(=O)NCc1ccco1)C1CCOCC1 (stereo unspecified) please
Solution: 644

Exercise: Try "CCC(=O)Nc1ccc2c(c1)Sc1ncccc1C(=O)N2C(C)C" next.
Solution: 704

Exercise: Next molecule up: "O=C(NCCn1ncccc1=O)c1csc(-c2ccccc2)n1"
Solution: 648

Exercise: Then what about the molecule "CCOc1ccccc1NC(=O)Cn1nc2c(Oc3cccc(F)c3)nccn2c1=O" ?
Solution: 906

Exercise: Thanks! And COc1ccc(CCC(=O)N2CCC3(C2)C(=O)Nc2ccccc23)cc1 (stereo unspecified) ?
Solution: 729

Exercise: Input O=C1CCCCC1Oc1cc(O)c2c(=O)cc(-c3ccccc3)oc2c1 (stereo unspecified)
Solution: 1090

Exercise: Okay, and "O=c1c2nnc3c(-c4ccc(F)cc4)cnn3c2ccn1CCc1c[nH]c2ccc(F)cc12" ?
Solution: 950

Where do the numbers come from? From the METLIN SMRT retention time set (Domingo-Almenara et al. 2019).
